molecular target: M3 (Homo sapiens, UniProt P20309); assay: In vitro functional assay of muscarinic acetylcholine receptor activity, M3; details: antagonist activity; M3 method not separately described
Sequence (P20309 whole entry): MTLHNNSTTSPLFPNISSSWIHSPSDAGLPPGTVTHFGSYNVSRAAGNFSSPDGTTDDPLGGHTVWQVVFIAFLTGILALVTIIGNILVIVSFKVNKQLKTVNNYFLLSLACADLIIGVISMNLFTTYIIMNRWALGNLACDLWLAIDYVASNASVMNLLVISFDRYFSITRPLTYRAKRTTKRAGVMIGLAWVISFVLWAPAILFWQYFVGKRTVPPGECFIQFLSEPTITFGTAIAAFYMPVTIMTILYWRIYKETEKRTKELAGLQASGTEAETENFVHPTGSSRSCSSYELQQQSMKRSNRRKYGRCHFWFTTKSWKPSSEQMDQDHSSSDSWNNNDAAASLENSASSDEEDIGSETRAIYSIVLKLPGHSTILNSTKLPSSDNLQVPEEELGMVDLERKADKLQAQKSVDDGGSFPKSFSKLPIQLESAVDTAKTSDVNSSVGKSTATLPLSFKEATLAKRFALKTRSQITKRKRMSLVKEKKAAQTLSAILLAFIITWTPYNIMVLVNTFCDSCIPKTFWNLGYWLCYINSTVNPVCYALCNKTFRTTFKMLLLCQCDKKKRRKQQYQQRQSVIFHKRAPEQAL
pIC50: −log10 of the molar value.
Answer each item with its documented pIC50.

q: Can you share its pIC50? I mean this molecule: COc1cc(N2CCN3C(=O)[C@@H](CCCc4cccc5ncnn45)C[C@H]3C2)ccn1
a: 5.00 to 6.00

q: Check O=C1[C@@H](CCCc2cccc3ncnn23)C[C@H]2CN(c3cccc(C(F)(F)F)n3)CCN12 too.
a: < 5.00

q: Note, next up: Cc1ccc(N2CCN3C(=O)[C@@H](CCCc4cccc5ncnn45)C[C@H]3C2)nc1
a: < 5.00

q: Lookup N#Cc1ccc(N2CCN3C(=O)[C@@H](CCCc4cccc5c4CCO5)C[C@H]3C2)nc1
a: 5.00 to 6.00

meta.source: patent US12054487B2
